System: HSV-1
Assay: HSV-1 Antiviral Assay (Vero cells, cell viability)
Format: cell-based
Conditions: Human alphaherpesvirus 1, 96 h; Vero cells, 80 TCID50 HSV-1, 4 days, cell viability; read-out: HSV-1 EC50
pEC50: −log10 of the molar value.
Recorded measurements of pEC50, one per entry

Consider the following illustrative entries.
[[record]]
molecule = "Cc1nc(N2CCCN(c3cc(F)c(-c4ccccc4)cc3F)C2=O)sc1S(N)(=O)=O [Compound 99]"
measured_result = "> 7.00"

[[record]]
molecule = "Cc1nc(N2CC3(COC3)CN(c3ccc(-c4cc(F)cc(-c5cnn(C(F)F)c5)c4F)cc3)C2=O)sc1S(N)(=O)=O [Compound 342]"
measured_result = "> 7.00"

[[record]]
molecule = "Cc1nc(N2CCCN(c3ccc(-c4nccs4)cc3)C2=O)sc1S(=O)(=O)NC1CC1 [Compound 127]"
measured_result = "> 7.00"


Give its pEC50 value. Item: Cc1nc(N2CCCN(c3ccc(-c4nc(C(F)(F)F)cs4)cc3)C2=O)sc1S(N)(=O)=O [Compound 46]
6.00 to 7.00

What do you have for COc1ccc(F)c(-c2ccc(N3CCCN(c4nc(C)c(S(N)(=O)=O)s4)C3=O)cc2)c1 [Compound 26] ?
> 7.00

What do you have for Cc1nc(N2CCCN(c3ccc(-c4nccc5ccccc45)cc3)C2=O)sc1S(N)(=O)=O [Compound 86] ?
6.00 to 7.00

What do you have for CC[S@](=N)(=O)c1sc(N2CCCN(c3ccc(-c4cc(F)ccc4F)cc3)C2=O)nc1C (single isomer, unassigned) [Compound 150] ?
> 7.00

What do you have for COc1ccccc1-c1ccc(N2CCCN(c3nc(C)c(S(N)(=O)=O)s3)C2=O)cc1 [Compound 10] ?
> 7.00

----------
Recorded measurements of EC50, one per entry
Test system: HSV-1
Experiment: HSV-1 Antiviral Assay (Vero cells, cell viability)
Assay type: cell-based
Settings: Human alphaherpesvirus 1, 96 h; Vero cells, 80 TCID50 HSV-1, 4 days, cell viability; read-out: HSV-1 EC50

Consider the following illustrative entries.
[[record]]
compound = "Cc1nc(N2CCCN(c3ccc(-c4cccc5[nH]cnc45)cc3)C2=O)sc1S(N)(=O)=O [Compound 74]"
reported_metric = "EC50"
measured_result = "100 to 1000 nM"

[[record]]
compound = "Cc1nc(N2CCCN(c3ccc(-c4cccc5c4cnn5CC(C)(C)O)cc3)C2=O)sc1S(N)(=O)=O [Compound 60]"
reported_metric = "EC50"
measured_result = "1000 to 5000 nM"

[[record]]
compound = "Cc1nc(N2CCCN(c3ccc(-c4nc5ncccc5s4)cc3)C2=O)sc1S(N)(=O)=O [Compound 89]"
reported_metric = "EC50"
measured_result = "1000 to 5000 nM"

[[record]]
compound = "CNc1cccc(-c2ccc(N3CCCN(c4nc(C)c(S(=O)(=O)NC)s4)C3=O)cc2)n1 [Compound 124]"
reported_metric = "EC50"
measured_result = "< 100 nM"

[[record]]
compound = "Cc1nc(N2CCCN(c3ccc(-c4cc(F)cc(-c5cnn(C(F)F)c5)c4F)cc3)C2=O)sc1S(N)(=O)=O [Compound 228]"
reported_metric = "EC50"
measured_result = "< 100 nM"


Give its EC50 value. Item: Cc1nc(N2CCCN(c3ccc(-c4cc(F)cc5nnsc45)cc3)C2=O)sc1S(N)(=O)=O [Compound 243]
< 100 nM

What do you have for Cc1nc(N2CCCN([C@H](C)c3cccc(-c4cc(F)ccc4F)c3)C2=O)sc1S(N)(=O)=O (single isomer, unassigned) [Compound 176] ?
1000 to 5000 nM

----------
Tested on: HSV-1
Experiment: HSV-1 Antiviral Assay (Vero cells, cell viability)
Format: cell-based
Settings: Human alphaherpesvirus 1, 96 h; Vero cells, 80 TCID50 HSV-1, 4 days, cell viability; read-out: HSV-1 EC50
Method: Vero cells were cultured in Dulbecco's Modified Eagle Medium (DMVEM) supplemented with […] and 100 units/mL penicillin and streptomycin. The cells were passaged 2-3 times per week to maintain sub-confluent densities. Vero cells were seeded into 96-well plates at a density of 2.5×10^3 cells per well and allowed to attach overnight. […] Following a 5-minute incubation, cell viability was quantified by measuring luminance using a Tecan Infinite M1000 Pro plate reader.
reported.metric: EC50

Consider the following illustrative entries.
[[record]]
compound = "Cc1nc(N2CCCN(c3ccc(-c4cccc(NC(=O)OC(C)(C)C)n4)cc3)C2=O)sc1S(N)(=O)=O"
measured_result = "100 to 1000 nM"

[[record]]
compound = "Cc1nc(N2CC(C(C)(C)F)CN(c3ccc(-c4cc(F)ccc4F)cc3)C2=O)sc1S(N)(=O)=O (stereo not shown)"
measured_result = "< 100 nM"

[[record]]
compound = "Cc1nc(N2CCCN([C@@H](C)c3cccc(-c4cc(F)ccc4F)c3)C2=O)sc1S(N)(=O)=O (single isomer, unassigned)"
measured_result = "1000 to 5000 nM"


Give its EC50 value. Item: CNS(=O)(=O)c1sc(N2CCCN(c3ccc(-c4cc(F)ccc4F)cc3)C2=O)nc1C
< 100 nM

----------
System: HSV-1
Assay: HSV-1 Antiviral Assay (Vero cells, cell viability)
Type: cell-based
Settings: Human alphaherpesvirus 1, 96 h; Vero cells, 80 TCID50 HSV-1, 4 days, cell viability; read-out: HSV-1 EC50
reported.metric: EC50

Consider the following illustrative entries.
[[record]]
molecule = "Cc1nc(N2CCCN(c3ccc(-c4ccccn4)cc3)C2=O)sc1S(=O)(=O)NC1CC1"
reported_metric = "EC50"
measured_result = "< 100 nM"

[[record]]
molecule = "Cc1nc(N2CCCN(c3ccc(-c4cccc5ncn(C)c45)cc3)C2=O)sc1S(N)(=O)=O"
reported_metric = "EC50"
measured_result = "1000 to 5000 nM"

[[record]]
molecule = "Cc1nc(N2CCCN(c3ccc(-c4cc(F)ccc4F)cc3)C2=O)sc1S(=O)(=O)Nc1ccccc1"
reported_metric = "EC50"
measured_result = "100 to 1000 nM"


Give its EC50 value. Item: Cc1nc(N2CCCN(c3ccc(-c4cc(F)ccc4C#N)cc3)C2=O)sc1S(N)(=O)=O
< 100 nM

----------
Test system: HSV-1
Test: HSV-1 Antiviral Assay (Vero cells, cell viability)
Type: cell-based
Conditions: Human alphaherpesvirus 1, 96 h; Vero cells, 80 TCID50 HSV-1, 4 days, cell viability; read-out: HSV-1 EC50
Protocol: Vero cells were cultured in Dulbecco's Modified Eagle Medium (DMVEM) supplemented with […] and 100 units/mL penicillin and streptomycin. The cells were passaged 2-3 times per week to maintain sub-confluent densities. Vero cells were seeded into 96-well plates at a density of 2.5×10^3 cells per well and allowed to attach overnight. […] Following a 5-minute incubation, cell viability was quantified by measuring luminance using a Tecan Infinite M1000 Pro plate reader.
reported.metric: EC50

[[record]]
record_smiles = "CNS(=O)(=O)c1sc(N2CCCN(c3ccc(-c4ccccc4F)cc3F)C2=O)nc1C"
measured_result = "< 100 nM"

[[record]]
record_smiles = "Cc1nc(N2CCCN(Cc3cccc(-c4ccccc4)c3)C2=O)sc1S(=O)(=O)NC1CC1"
measured_result = "100 to 1000 nM"

[[record]]
record_smiles = "Cc1nc(N2CCCN(c3ccc(-c4ccccn4)cc3)C2=O)sc1S(N)(=O)=O"
measured_result = "< 100 nM"


Let's switch to this compound now.
What measured EC50 is associated with Cc1nc(N2CCN(c3ccc(-c4cc(F)ccc4F)cc3)C2=O)sc1S(N)(=O)=O on HSV-1?
1000 to 5000 nM

----------
System: HSV-2 G strain
Experiment: HSV-2 Antiviral Assay (Vero cells, cell viability)
Assay type: cell-based
Conditions: Human alphaherpesvirus 2, Vero, 120 h, Vero cells, 5 days
pEC50: −log10 of the molar value.
reported.metric: pEC50

[[record]]
molecule = "Cc1nc(N2CCCN(c3ccc(-c4cc(F)cc5nsnc45)cc3)C2=O)sc1S(N)(=O)=O"
measured_result = 8.15


A. Cc1nc(N(C)C(=O)N(C)c2ccc(-c3cc(F)ccc3F)cc2)sc1S(N)(=O)=O [Reference Compound A, reference compound]
B. Cc1nc(N2CCN(c3ccc(-c4cc(F)cc5nsnc45)cc3)C2=O)sc1S(N)(=O)=O
Among A and B , whose measured pEC50 is the smaller figure? Returns: label corresponding to the selected item.
A

----------
Test system: HSV-1
Assay: HSV-1 Antiviral Assay (Vero cells, cell viability)
Assay type: cell-based
Settings: Human alphaherpesvirus 1, 96 h; Vero cells, 80 TCID50 HSV-1, 4 days, cell viability; read-out: HSV-1 EC50
reported.metric: EC50

Consider the following illustrative entries.
[[record]]
molecule = "Cc1nc(N2C[C@H](C(C)(C)O)CN(c3ccc(-c4cc(F)ccc4F)cc3)C2=O)sc1S(N)(=O)=O (single isomer, unassigned) [Compound 343]"
measured_result = "< 0.1 µM"

[[record]]
molecule = "CNS(=O)(=O)c1sc(N2CCCN(c3ccc(-c4cccc(N)n4)cc3)C2=O)nc1C [Compound 123]"
measured_result = "< 0.1 µM"

[[record]]
molecule = "O=C1N(c2ccc(-c3cc(F)ccc3F)cc2)CCCN1c1ncc(S(=O)(=O)C2CC2)s1 [Compound 166]"
measured_result = "0.1 to 1 µM"

[[record]]
molecule = "COc1c(F)cc(F)cc1-c1ccc(N2CCCN(c3nc(C)c(S(N)(=O)=O)s3)C2=O)cc1 [Compound 216]"
measured_result = "< 0.1 µM"

[[record]]
molecule = "Cc1nc(N2CCCN(c3ccc(-c4cccc5c4cnn5C(C)C)cc3)C2=O)sc1S(N)(=O)=O [Compound 56]"
measured_result = "0.1 to 1 µM"


Give its EC50 value. Item: Cc1cnc(-c2ccc(N3CCCN(c4nc(C)c(S(N)(=O)=O)s4)C3=O)cc2)s1 [Compound 44]
1 to 5 µM

What do you have for COCc1ccc(F)cc1-c1ccc(N2CCCN(c3nc(C)c(S(N)(=O)=O)s3)C2=O)cc1 [Compound 209] ?
< 0.1 µM

What do you have for CC(=O)N1CC2(C1)CN(c1ccc(-c3cc(F)ccc3F)cc1)C(=O)N(c1nc(C)c(S(N)(=O)=O)s1)C2 [Compound 338] ?
0.1 to 1 µM

What do you have for Cc1nc(N2CC3(COC3)CN(c3ccc(-c4cc(F)ccc4F)cc3)C2=O)sc1S(N)(=O)=O [Compound 339] ?
< 0.1 µM

What do you have for NS(=O)(=O)c1sc(N2CCCN(c3ccc(-c4cc(F)ccc4F)cc3)C2=O)nc1CF [Compound 441] ?
< 0.1 µM

What do you have for Cc1nc(N2CC3(CC3)CN(c3ccc(-c4ccnn4C)cc3)C2=O)sc1S(N)(=O)=O [Compound 113] ?
1 to 5 µM

What do you have for Cc1nc(N2CCCN(c3ccc(-c4cc(F)cc5c4ccn5C)cc3)C2=O)sc1S(N)(=O)=O [Compound 251] ?
< 0.1 µM

What do you have for Cc1nc(N2CC3(CC3)CN(c3ccc(-c4ccccc4F)cc3)C2=O)sc1S(N)(=O)=O [Compound 111] ?
< 0.1 µM

What do you have for Cc1nc(N2CCCN(c3ccc(-c4ccccc4Cl)cc3)C2=O)sc1S(N)(=O)=O [Compound 9] ?
< 0.1 µM

What do you have for Cc1nc(N2CCCN(c3ccc(-c4cc(F)ccc4F)cc3)C2=O)sc1[S@](C)(=N)=O (single isomer, unassigned) [Compound 141] ?
< 0.1 µM

What do you have for Cc1nc(N2CCCN(c3ccc(-c4ccccc4F)c(F)c3)C2=O)sc1S(N)(=O)=O [Compound 95] ?
0.1 to 1 µM

What do you have for Cc1nc(N2CCCN(c3ccc(-c4cc(F)ccc4Cl)cc3)C2=O)sc1S(N)(=O)=O [Compound 193] ?
< 0.1 µM

What do you have for Cc1nc(N2CCCN(c3ccc(-c4cccc5nn(C(C)C)cc45)cc3)C2=O)sc1S(N)(=O)=O [Compound 59] ?
1 to 5 µM

What do you have for Cc1nc(N2CCCN(c3ccc(-c4cccc(C(F)F)c4)cc3)C2=O)sc1S(N)(=O)=O [Compound 14] ?
< 0.1 µM

What do you have for Cc1nc(N2CCCN(c3ccc(-c4cnccn4)cc3)C2=O)sc1S(N)(=O)=O [Compound 39] ?
0.1 to 1 µM

What do you have for C#Cc1cc(F)c(-c2ccc(N3CCCN(c4nc(C)c(S(N)(=O)=O)s4)C3=O)cc2)cc1F [Compound 29] ?
1 to 5 µM
